- Test system: MRSA COL (NRS100)
- protocol description: MIC, broth micro-dilution technique (CLSI)
- Assay type: cell-based, Staphylococcus aureus
- assay setup: Table 2 modified protocol: serial 2-fold dilutions starting from 4 μg/mL; 35° C., 22 hours
- Procedure: In vitro antimicrobial activity of each compound was determined by measuring minimal inhibitor concentrations (MICs) using the broth micro-dilution technique as approved by the Clinical and Laboratory Standards Institute (CLSI) (Methods for Dilution Antimicrobial Susceptibility Tests for Bacteria that Grow Aerobically; Approved Standard—Eighth Edition. CLSI document M07-A8. Wayne, Pa.: Clinical and Laboratory Standards; 2009). […]
readout name: MIC (μg/mL) (COL) (µg/mL)
Unit µg/mL implied. Number only.

What does the record list as MIC (μg/mL) (COL) for CCCCCCCCCC(=O)N[C@@H](CCSC)C(=O)N(C)[C@@H]1C(=O)N[C@@H](C)C(=O)N[C@H](C(=O)N[C@@H](C)C(C)=O)Cc2ccc(OCCN)c(c2)-c2cc1ccc2OCCN.O=CO [Compound 261] ? 0.38

What does the record list as MIC (μg/mL) (COL) for CCCCCCCCCCNCCC(=O)N[C@@H](CCCCN)C(=O)N(C)[C@@H]1C(=O)N[C@@H](C)C(=O)N[C@H](C(=O)N[C@@H](C)C(=O)c2nnn[nH]2)Cc2ccc(OCCN)c(c2)-c2cc1ccc2OCCN.O=CO [Compound 271] ? 0.016

----------
Provide the reported MIC (μg/mL) E. coli of each item.
- System: Escherichia coli MC4100 harboring the IMP4213
- protocol description: MIC, broth micro-dilution technique (CLSI)
- Format: cell-based
- assay setup: Table 2 modified protocol: serial 2-fold dilutions starting from 4 μg/mL; 35° C., 22 hours

What does the record list as MIC (μg/mL) E. coli for CCCCCCCCCCNCCC(=O)N(C)[C@@H]1C(=O)N[C@@H](C)C(=O)N[C@H](C(=O)N[C@@H](C)C(C)=O)Cc2ccc(OCCN)c(c2)-c2cc1ccc2OCCN.O=CO ? 2.5 µg/mL

What does the record list as MIC (μg/mL) E. coli for CCCCCCCCCCS(=O)(=O)N[C@@H](CCCCN)C(=O)N(C)[C@@H]1C(=O)N[C@@H](C)C(=O)N[C@H](C(=O)N[C@@H](C)C(C)=O)Cc2ccc(OCCN)c(c2)-c2cc1ccc2OCCN.O=CO ? >4 µg/mL

What does the record list as MIC (μg/mL) E. coli for CCCCCCCCCCNCCC(=O)N[C@@H](CCCCN)C(=O)N(C)[C@@H]1C(=O)N[C@@H](C)C(=O)N[C@H](C(=O)N[C@@H](C)C(=O)c2nnn[nH]2)Cc2ccc(OCCN)c(c2)-c2cc1ccc2OCCN.O=CO ? 4 µg/mL

What does the record list as MIC (μg/mL) E. coli for CCCCCCCCCC(=O)N[C@@H](CC(N)=O)C(=O)N(C)[C@@H]1C(=O)N[C@@H](C)C(=O)N[C@H](C(=O)N[C@@H](C)C(C)=O)Cc2ccc(OCCN)c(c2)-c2cc1ccc2OCCN.O=CO ? >4 µg/mL

What does the record list as MIC (μg/mL) E. coli for C[C@@H]1NC(=O)[C@@H](N(C)C(=O)[C@H](CCCCN)NC(=O)c2ccc(-c3ccc(Cl)cc3)cc2)c2ccc(OCCN)c(c2)-c2cc(ccc2OCCN)C[C@@H](C(=O)N[C@@H](C)C(=O)c2[nH]ncc2[N+](=O)[O-])NC1=O ? 4 µg/mL

Taken from patent US10392422B2.
